- System: HS 578T breast
- measurement notes: NCI tumour cell line growth inhibition, 48 h
measurement name: log10 TGI (log10 of the value in µM)

| smiles data | log10 TGI |
| --- | --- |
| Cc1c(N2CCCC2)cc2c(c1NC(=O)c1ccccc1Cl)C(C)(C)CC2(C)C | 1.58 |
| COc1cc2c(cc1O)CC[C@@H]1[C@@H]2CC[C@]2(C)[C@@H](NCCN(C)C)CC[C@@H]12 | 0.04 |
| C=C1C(=O)O[C@H]2[C@H]1CC/C(CNC(=O)Cc1c[nH]c3ccccc13)=C\CC[C@@]1(C)O[C@@H]21 | 1.66 |
| Cc1cc(N(CCC#N)CCC#N)ccc1/C(N=Nc1ccc(Cl)cc1)=N\NC(=O)c1cc(Cl)ccc1O | 1.75 |
| CN(C)c1ccc(/C=c2/c3ccccc3n3c2c2ccccc2[n+]3C)cc1 | 0.65 |

* * *

The following compounds are shown together with reported TGI values.
- Tested on: MDA-N
- measurement notes: NCI tumour cell line growth inhibition, 48 h
Where a SMILES comes first, the peptide text is derived from it. The star is where a group is joined. Boc = CC(C)(C)OC(=O)*; Bz = O=C(c1ccccc1)*

| compound | measurement target | TGI |
| --- | --- | --- |
| O=C(O)CCNc1ccccc1C(=O)O | MDA-N | > 100 µM |
| CC(NC(=O)C(Cc1ccc(OC(=O)c2ccccc2)cc1)NC(=O)OC(C)(C)C)C(=O)NC(Cc1ccccc1)C(=O)NCC(N)=O (stereo not drawn) (Boc-Y(Bz)AFG-NH2; configuration not given here) | MDA-N | 79.4 µM |
| CS(=O)(=O)c1ccc(/C=N/NC(N)=S)cc1 | MDA-N | > 100 µM |
| CCOC(=O)c1ccc2[nH]c(-c3ccc(S(=O)(=O)F)cc3)cc(=O)c2c1 | MDA-N | > 100 µM |
| COC(=O)[C@@]12C(=O)C=CC(=O)[C@@H]1C1C(=CC2COC(C)=O)O[C@@H]2OC3(CCCCC3)O[C@H]12 (stereo partly drawn) | MDA-N | 25.1 µM |
| Oc1ccc(-c2csc(NNC3=NC/C(=C/c4ccc5c(c4)OCO5)S3)n2)cc1O | MDA-N | > 100 µM |
| CCC(C#N)(c1ccccc1)N(CCc1ccccc1)C(=O)c1ccccc1 (stereo not drawn) | MDA-N | > 100 µM |
| CC(=N\N)/C(C)=N/N=C(C)/C(C)=N/N=C(C)/C(C)=N/N=C(C)/C(C)=N/N | MDA-N | > 100 µM |

* * *

- Tested on: NCI-H226 lung
- measurement notes: NCI tumour cell line growth inhibition, 48 h
Counter-ions that a name gives are not always drawn. Where a SMILES comes first, the peptide text is derived from it. The star is where a group is joined. Tfa = O=C(C(F)(F)F)*
measurement name: TGI

| molecule | measurement name | measured |
| --- | --- | --- |
| Nc1ccc(S(=O)(=O)Nc2nnc(S(N)(=O)=O)s2)cc1 | TGI | > 100 µM |
| CCCCON(OC(=O)c1ccccc1)C(=O)c1ccccc1 | TGI | > 100 µM |
| O=C(O)CC(NC(=O)C(F)(F)F)C(=O)NC(Cc1ccc(O)cc1)C(=O)O (stereo not drawn) (Tfa-Asp-Tyr-OH; configuration not given here) | TGI | > 50 µM |
| Cc1ccc(S(=O)(=O)N[C@H](C(=O)O)c2ccccc2)cc1 | TGI | > 100 µM |
